For each record, write down the corresponding EC50.
target: TLR1/TLR2 (Mus musculus, UniProt Q9EPQ1+Q9QUN7); experiment: TNF-α release from thioglycolate-elicited mouse peritoneal macrophages (ELISA); details: read-out: EC50 (nM) (mouse): EC50 TNF-α release from mouse macrophages; Table 6
Sequence (Q9EPQ1 26-795): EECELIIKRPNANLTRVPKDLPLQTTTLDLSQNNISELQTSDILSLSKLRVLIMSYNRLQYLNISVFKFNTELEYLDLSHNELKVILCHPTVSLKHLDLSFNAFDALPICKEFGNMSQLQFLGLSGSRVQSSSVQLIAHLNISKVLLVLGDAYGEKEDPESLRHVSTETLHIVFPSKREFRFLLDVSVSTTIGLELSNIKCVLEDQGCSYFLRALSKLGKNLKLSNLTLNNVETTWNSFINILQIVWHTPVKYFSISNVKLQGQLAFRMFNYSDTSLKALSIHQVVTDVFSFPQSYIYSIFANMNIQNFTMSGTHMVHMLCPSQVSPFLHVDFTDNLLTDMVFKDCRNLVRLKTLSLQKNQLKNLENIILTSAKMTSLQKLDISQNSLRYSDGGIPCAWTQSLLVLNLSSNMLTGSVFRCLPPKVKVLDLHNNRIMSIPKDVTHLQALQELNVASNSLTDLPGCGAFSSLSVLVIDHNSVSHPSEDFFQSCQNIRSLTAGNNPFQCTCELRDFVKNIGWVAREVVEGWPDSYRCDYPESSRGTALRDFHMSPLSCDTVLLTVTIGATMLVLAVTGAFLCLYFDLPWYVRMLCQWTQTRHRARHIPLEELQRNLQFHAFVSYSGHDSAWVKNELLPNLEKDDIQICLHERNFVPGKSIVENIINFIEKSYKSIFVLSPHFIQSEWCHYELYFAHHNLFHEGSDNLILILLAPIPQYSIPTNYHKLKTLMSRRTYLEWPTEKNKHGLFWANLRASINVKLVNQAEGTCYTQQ
Sequence (Q9QUN7 25-784): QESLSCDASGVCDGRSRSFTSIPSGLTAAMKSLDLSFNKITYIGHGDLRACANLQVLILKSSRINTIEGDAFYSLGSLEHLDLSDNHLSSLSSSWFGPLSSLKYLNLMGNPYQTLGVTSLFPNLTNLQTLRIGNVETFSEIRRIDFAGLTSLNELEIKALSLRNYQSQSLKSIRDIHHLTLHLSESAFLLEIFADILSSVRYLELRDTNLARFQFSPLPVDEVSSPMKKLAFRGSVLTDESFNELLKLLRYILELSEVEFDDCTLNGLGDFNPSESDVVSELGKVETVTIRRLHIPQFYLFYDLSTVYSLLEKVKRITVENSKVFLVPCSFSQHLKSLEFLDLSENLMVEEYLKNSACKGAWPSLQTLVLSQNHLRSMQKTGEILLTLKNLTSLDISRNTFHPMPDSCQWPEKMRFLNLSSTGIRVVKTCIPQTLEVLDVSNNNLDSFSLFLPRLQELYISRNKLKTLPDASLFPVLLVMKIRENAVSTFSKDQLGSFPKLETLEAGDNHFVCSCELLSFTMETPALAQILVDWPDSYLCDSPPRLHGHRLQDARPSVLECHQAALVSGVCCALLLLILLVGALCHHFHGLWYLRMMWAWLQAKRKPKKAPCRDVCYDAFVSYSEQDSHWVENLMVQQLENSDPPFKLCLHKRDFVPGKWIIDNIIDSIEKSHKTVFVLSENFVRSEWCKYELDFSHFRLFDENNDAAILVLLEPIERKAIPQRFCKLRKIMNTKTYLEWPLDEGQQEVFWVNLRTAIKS
Answer with the number, then the unit.

O=C(O)c1ccc(C(=O)OCCCCCCCCCCCCNC(=O)[C@@H]2CN(C(=O)c3ccc(C(=O)N4C[C@@H](C(=O)N[C@H]5C[C@@H]5c5ccccc5)[C@H](C(=O)N[C@H]5C[C@@H]5c5ccccc5)C4)cc3)C[C@H]2C(=O)N[C@H]2C[C@@H]2c2ccccc2)cc1 = 2.1 nM

Quick request: EC50 for each listed item, please.
1. Nc1ccc(C(=O)OCCCCCCCCCCCCNC(=O)[C@@H]2CN(C(=O)c3ccc(C(=O)N4C[C@@H](C(=O)N[C@H]5C[C@@H]5c5ccccc5)[C@H](C(=O)N[C@H]5C[C@@H]5c5ccccc5)C4)cc3)C[C@H]2C(=O)N[C@H]2C[C@@H]2c2ccccc2)cc1
2. CC(C)(C)OC(=O)Nc1ccc(C(=O)OCCCCCCCCCCCCNC(=O)[C@@H]2CN(C(=O)c3ccc(C(=O)N4C[C@@H](C(=O)N[C@H]5C[C@@H]5c5ccccc5)[C@H](C(=O)N[C@H]5C[C@@H]5c5ccccc5)C4)cc3)C[C@H]2C(=O)N[C@H]2C[C@@H]2c2ccccc2)cc1
3. O=C(CNC(=O)C(=O)O)OCCCCCCCCCCCCNC(=O)[C@@H]1CN(C(=O)c2ccc(C(=O)N3C[C@@H](C(=O)N[C@H]4C[C@@H]4c4ccccc4)[C@H](C(=O)N[C@H]4C[C@@H]4c4ccccc4)C3)cc2)C[C@H]1C(=O)N[C@H]1C[C@@H]1c1ccccc1

# output
0.67 nM
30 nM
6.7 nM
